Reference for the values: patent EP1247803A2

# TARGET OR SYSTEM: EGFR (Homo sapiens, UniProt P00533)
# Construct: Add 7 ug A431 cell lysate per well (EGFR source); endogenous in cells; host or cells: A431
# Sequence (P00533 25-1210): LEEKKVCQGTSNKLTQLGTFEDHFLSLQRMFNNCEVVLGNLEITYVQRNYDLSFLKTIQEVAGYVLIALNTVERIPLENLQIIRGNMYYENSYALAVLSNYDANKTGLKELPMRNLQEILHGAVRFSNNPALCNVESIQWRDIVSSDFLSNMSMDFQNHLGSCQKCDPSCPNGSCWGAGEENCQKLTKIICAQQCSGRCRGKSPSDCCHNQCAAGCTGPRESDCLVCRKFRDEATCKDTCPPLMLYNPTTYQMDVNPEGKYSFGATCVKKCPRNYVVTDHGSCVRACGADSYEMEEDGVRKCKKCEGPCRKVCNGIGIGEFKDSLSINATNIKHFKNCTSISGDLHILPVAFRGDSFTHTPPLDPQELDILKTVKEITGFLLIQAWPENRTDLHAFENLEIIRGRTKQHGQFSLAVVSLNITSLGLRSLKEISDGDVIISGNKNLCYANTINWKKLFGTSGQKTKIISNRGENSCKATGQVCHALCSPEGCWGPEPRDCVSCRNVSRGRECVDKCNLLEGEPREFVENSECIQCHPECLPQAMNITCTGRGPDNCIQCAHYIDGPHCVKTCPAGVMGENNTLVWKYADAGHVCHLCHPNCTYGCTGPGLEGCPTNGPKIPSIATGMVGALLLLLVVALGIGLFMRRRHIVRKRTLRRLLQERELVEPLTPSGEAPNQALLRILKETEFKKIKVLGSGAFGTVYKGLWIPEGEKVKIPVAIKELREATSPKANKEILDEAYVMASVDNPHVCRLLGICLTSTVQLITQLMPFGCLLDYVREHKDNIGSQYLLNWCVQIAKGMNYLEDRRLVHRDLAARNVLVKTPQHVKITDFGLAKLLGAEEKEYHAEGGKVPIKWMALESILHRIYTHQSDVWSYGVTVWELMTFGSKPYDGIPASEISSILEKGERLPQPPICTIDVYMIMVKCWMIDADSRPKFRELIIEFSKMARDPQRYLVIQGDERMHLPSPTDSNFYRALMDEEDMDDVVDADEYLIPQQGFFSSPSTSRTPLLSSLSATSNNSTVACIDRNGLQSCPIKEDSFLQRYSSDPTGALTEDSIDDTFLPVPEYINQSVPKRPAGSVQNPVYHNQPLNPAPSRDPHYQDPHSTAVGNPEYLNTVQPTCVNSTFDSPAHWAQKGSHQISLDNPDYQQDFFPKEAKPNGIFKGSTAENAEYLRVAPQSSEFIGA
# TEST: EGFR ELISA assay (in vitro kinase activity, EGFR captured from A431 cell lysate)
# Type: biochemical
# Design: concentration or dose not given beside the values
Parameter: Biochem EGFR %Inhibition. Scope: all listed entries.
REPORTED ENDPOINT: Biochem EGFR %Inhibition (%)

structure_notation=CNS(=O)(=O)c1ccc2c(c1)C(=Cc1ccc(O)c(OC)c1[N+](=O)[O-])C(=O)N2 reported_endpoint="Biochem EGFR %Inhibition" uom=% assay_result=33.7
structure_notation=COc1cccc(O)c1C=C1C(=O)Nc2c(Br)cc(Br)cc21 reported_endpoint="Biochem EGFR %Inhibition" uom=% assay_result=8.1
structure_notation=Cc1cc(C=C2C(=O)Nc3ccc(Br)c(C)c32)cc(C(C)(C)C)c1O reported_endpoint="Biochem EGFR %Inhibition" uom=% assay_result=58.4
structure_notation=COc1cc(Br)c(O)c(C=C2C(=O)Nc3ccc(S(=O)(=O)Nc4ccc(C(F)(F)F)cc4)cc32)c1 reported_endpoint="Biochem EGFR %Inhibition" uom=% assay_result=50.4
structure_notation=CNS(=O)(=O)c1ccc2c(c1)C(=Cc1cc3c4c(c1O)CCCN4CCC3)C(=O)N2 reported_endpoint="Biochem EGFR %Inhibition" uom=% assay_result=-8.4
structure_notation=O=C1Nc2c(Br)cc(Br)cc2C1=Cc1c[nH]c(=O)[nH]c1=O reported_endpoint="Biochem EGFR %Inhibition" uom=% assay_result=25.7
structure_notation=O=C1Nc2ccc(CCCl)cc2C1=Cc1ccc(F)cc1 reported_endpoint="Biochem EGFR %Inhibition" uom=% assay_result=-0.1
structure_notation=COc1cc(Br)cc(C=C2C(=O)Nc3ccc(CCCl)cc32)c1O reported_endpoint="Biochem EGFR %Inhibition" uom=% assay_result=44.2
structure_notation=COc1cc(O)ccc1C=C1C(=O)Nc2ccc(I)cc21 reported_endpoint="Biochem EGFR %Inhibition" uom=% assay_result=32.3
